test: in vitro; conditions: human
resultType: CC50 (µM)
Note: unit µM is implicit; provide only the numeric part.

**Q:** What does the data say about its CC50? Entry: CCOc1nc(N)nc2c1ncn2C1O[C@H](COP(=O)(N[C@@H](C)C(=O)OCC(C)(C)C)Oc2cccc3ccccc23)[C@@H](O)[C@@]1(C)O (some centres unmarked)
**A:** 10

**Q:** Also check COc1nc(N)nc2c1ncn2C1O[C@H](CO[P@@](=O)(N[C@@H](C)C(=O)OCC(C)(C)C)Oc2cccc3ccccc23)[C@@H](O)[C@@]1(C)O (some centres unmarked)
**A:** 13

----------
test system: MDCK cells; conditions: Influenza B assay
resultType: CC50

**Q:** What CC50 value was documented for this compound, COc1nc(N)nc2c1ncn2C1O[C@H](COP(=O)(N[C@@H](C)C(=O)OCC(C)(C)C)Oc2cccc3ccccc23)[C@@H](O)[C@@]1(C)O (stereo partly shown) [Example 20] ?
**A:** > 10 µM
